Test system: M14 melanoma
measurement_protocol: NCI-60 one-dose screen, 48 h (100 = growth as untreated, 0 = no growth, -100 = all killed)
condition_details: 10 µM unless noted
Method: Growth inhibition of the M14 human tumor cell line is measured as a screen for anti-cancer activity. Cells are grown in 96 well plates and exposed to the test compound for 48 hours. Compounds are tested at a single concentration, which is 10^-5 M for most compounds. The reported endpoint is percent growth (GI% or GIPRCNT), where numbers from 0 - 100% represent growth inhibition, and numbers from -100% - 0 represent cell death. For example, a value of 40 represents 60% growth inhibition. […]
Compounds without any hit were thinned out: in the full panel of roughly 83,000, 20% have a hit.
Mark true (1) for growth under 90%, false (0) if at or over.

[[record]]
compound = "O=C(CSc1nc2ccccc2[nH]1)NCc1ccccc1"
class_name = "false (0)"

[[record]]
compound = "C#CCNC(=O)[C@H](Cc1ccccc1)NC(=O)[C@]12CC[C@@H](C(=C)C)[C@@H]1[C@H]1CC[C@@H]3[C@@]4(C)CCC(=O)C(C)(C)[C@@H]4CC[C@@]3(C)[C@]1(C)CC2"
class_name = "true (1)"

[[record]]
compound = "COc1ccc(C(=O)Nc2cccc(C3CCc4c(cc(OC)c(OC)c4OC)O3)c2)cc1 (stereo not drawn)"
class_name = "true (1)"

[[record]]
compound = "COc1cc(C2=NN(C(C)=O)C(c3cc(OC)c(OC)c(OC)c3)C2)ccc1O (stereo not drawn)"
class_name = "true (1)"

[[record]]
compound = "N=C1C(c2nc3ccccc3s2)=C(O)CN1c1cc(Cl)cc(Cl)c1"
class_name = "true (1)"

[[record]]
compound = "Cc1cccc(C)c1N=c1oc2ccc(Cl)cc2nc1-c1ccccc1O"
class_name = "true (1)"

[[record]]
compound = "CCOC(=O)Oc1c(OC)cc(C(=O)c2ccc(OC)c(O)c2OC)cc1OC"
class_name = "true (1)"

[[record]]
compound = "COc1cc(OC)cc(C(=O)C[n+]2cccc3cc[nH]c32)c1"
class_name = "false (0)"

[[record]]
compound = "COc1ccc(-c2cnc3c(-c4cccc5ncccc45)cnn3c2)cc1"
class_name = "true (1)"

[[record]]
compound = "CCOc1ccc(/C=N/Nc2cc(C)nc3ccc(Br)cc23)cc1"
class_name = "false (0)"

[[record]]
compound = "Cc1nc2sccn2c1-c1cn2ccsc2n1"
class_name = "false (0)"

[[record]]
compound = "CCN(CC)CC[n+]1cc2cc(OC)c(OC)cc2c2ccc3cc4c(cc3c21)OCO4"
class_name = "true (1)"

[[record]]
compound = "COc1cc(C=O)ccc1OC1OC(COC(C)=O)C(OC(C)=O)C(OC(C)=O)C1OC(C)=O (stereo not drawn)"
class_name = "false (0)"

[[record]]
compound = "COc1cc2c(c(OC)c1OC)-c1ccc(NNC(=S)N(Cc3cccc(C[N+](Cc4cccc(CNC56CC7CC(CC(C7)C5)C6)c4)(Cc4cccc(CNC56CC7CC(CC(C7)C5)C6)c4)Cc4cccc(CN(C(=S)NNc5ccc6c(cc5=O)[C@@H](NC(C)=O)CCc5cc(OC)c(OC)c(OC)c5-6)C56CC7CC(CC(C7)C5)C6)c4)c3)C34CC5CC(CC(C5)C3)C4)c(=O)cc1[C@@H](NC(C)=O)CC2 (stereo partly drawn)"
class_name = "true (1)"

[[record]]
compound = "N#C/C(=C\\c1ccc([N+](=O)[O-])s1)c1nc2cc(Br)ccc2s1"
class_name = "true (1)"

[[record]]
compound = "NC1=NN=C(N)C1=Cc1cc2ccccc2n2nnnc12"
class_name = "false (0)"

[[record]]
compound = "COc1ccc(C(C)=O)c(OC)c1"
class_name = "false (0)"

[[record]]
compound = "O=C(Cc1ccccc1)NNc1nc(Cl)nc(N2CCN(C(c3ccccc3)c3ccccc3)CC2)n1"
class_name = "true (1)"


src = PubChem BioAssay (NCI)
